Where these numbers come from: patent US9422283B2

# test-details: Solvent solubility screen by solvent addition technique
# Format: physicochemical
# condition-context: 40 °C, organic solvent or mixture, thermodynamic from solid; Methylethyl ketone; amorphous input; read-out: Solubility (mg/mL) at 40° C.
Where a name gives a salt, the structure may show the parent alone.
quantity-measured: solubility

Recorded result, Nc1ncccc1-c1nc2ccc(-c3ccccc3)nc2n1-c1ccc(C2(N)CCC2)cc1 [Compound A bis-mesylate salt] , solubility: < 8 mg/mL

====

# test-details: Solvent solubility screen by solvent addition technique
# Assay type: physicochemical
# condition-context: 40 °C, organic solvent or mixture, thermodynamic from solid; Isopropyl acetate; amorphous input; read-out: Solubility (mg/mL) at 40° C.
Where a name gives a salt, the structure may show the parent alone.
quantity-measured: solubility

Sample Nc1ncccc1-c1nc2ccc(-c3ccccc3)nc2n1-c1ccc(C2(N)CCC2)cc1 [Compound A bis-mesylate salt] ; solubility observed: < 8 mg/mL

====

# test-details: Solvent solubility screen by solvent addition technique
# Type: physicochemical
# condition-context: 40 °C, organic solvent or mixture, thermodynamic from solid; Acetone:water (90:10); amorphous input; read-out: Solubility (mg/mL) at 40° C.
Structures can show the parent of a compound that is named as a salt.
quantity-measured: solubility

Lookup result for Nc1ncccc1-c1nc2ccc(-c3ccccc3)nc2n1-c1ccc(C2(N)CCC2)cc1 [Compound A bis-mesylate salt] ; measured solubility: ~16 mg/mL

====

# test-details: Solvent solubility screen by solvent addition technique
# Type: physicochemical
# condition-context: 40 °C, organic solvent or mixture, thermodynamic from solid; Acetonitrile; amorphous input; read-out: Solubility (mg/mL) at 40° C.
Structures can show the parent of a compound that is named as a salt.
quantity-measured: solubility

For record Nc1ncccc1-c1nc2ccc(-c3ccccc3)nc2n1-c1ccc(C2(N)CCC2)cc1 [Compound A bis-mesylate salt] the listed solubility is < 8 mg/mL

====

# test-details: Solvent solubility screen by solvent addition technique
# Type: physicochemical
# condition-context: 40 °C, organic solvent or mixture, thermodynamic from solid; 1-Butanol; amorphous input; read-out: Solubility (mg/mL) at 40° C.
Structures can show the parent of a compound that is named as a salt.
quantity-measured: solubility

Entry under test: Nc1ncccc1-c1nc2ccc(-c3ccccc3)nc2n1-c1ccc(C2(N)CCC2)cc1 [Compound A bis-mesylate salt] . Its solubility was < 8 mg/mL

====

# test-details: Solvent solubility screen by solvent addition technique
# Type: physicochemical
# condition-context: 40 °C, organic solvent or mixture, thermodynamic from solid; Methanol; amorphous input; read-out: Solubility (mg/mL) at 40° C.
Where a name gives a salt, the structure may show the parent alone.
quantity-measured: solubility

Nc1ncccc1-c1nc2ccc(-c3ccccc3)nc2n1-c1ccc(C2(N)CCC2)cc1 [Compound A bis-mesylate salt] yielded solubility of ~40 mg/mL

====

# test-details: Solvent solubility screen by solvent addition technique
# Assay type: physicochemical
# condition-context: 40 °C, organic solvent or mixture, thermodynamic from solid; Toluene; amorphous input; read-out: Solubility (mg/mL) at 40° C.
Counter-ions that a name gives are not always drawn.
quantity-measured: solubility

Measured solubility, Nc1ncccc1-c1nc2ccc(-c3ccccc3)nc2n1-c1ccc(C2(N)CCC2)cc1 [Compound A bis-mesylate salt] : < 8 mg/mL

====

# test-details: Solvent solubility screen by solvent addition technique
# Format: physicochemical
# condition-context: 40 °C, organic solvent or mixture, thermodynamic from solid; Diisopropyl ether; amorphous input; read-out: Solubility (mg/mL) at 40° C.
# Method: The amorphous form of Compound A bis-mesylate salt was used as the input material for the solubility screen. Solubility values were estimated by a solvent addition technique in order to provide approximate values for generating slurries during later experiments. Approximately 15 mg of amorphous material was weighed out into 24 vials. […] If 2000 μl of solvent was added without dissolution of the solid, solubility was calculated to be below this point.
Counter-ions that a name gives are not always drawn.
quantity-measured: solubility

Record Nc1ncccc1-c1nc2ccc(-c3ccccc3)nc2n1-c1ccc(C2(N)CCC2)cc1 [Compound A bis-mesylate salt] , field solubility: < 8 mg/mL

====

# test-details: Solvent solubility screen by solvent addition technique
# Assay type: physicochemical
# condition-context: 40 °C, organic solvent or mixture, thermodynamic from solid; tert-Butylmethyl ether; amorphous input; read-out: Solubility (mg/mL) at 40° C.
Counter-ions that a name gives are not always drawn.
quantity-measured: solubility

Just so you know, measured solubility for Nc1ncccc1-c1nc2ccc(-c3ccccc3)nc2n1-c1ccc(C2(N)CCC2)cc1 [Compound A bis-mesylate salt] came out at < 8 mg/mL

====

# test-details: Solvent solubility screen by solvent addition technique
# Type: physicochemical
# condition-context: 40 °C, organic solvent or mixture, thermodynamic from solid; Dichloromethane; amorphous input; read-out: Solubility (mg/mL) at 40° C.
Structures can show the parent of a compound that is named as a salt.
quantity-measured: solubility

Memo: Nc1ncccc1-c1nc2ccc(-c3ccccc3)nc2n1-c1ccc(C2(N)CCC2)cc1 [Compound A bis-mesylate salt] , reported solubility: < 8 mg/mL

====

# test-details: Solvent solubility screen by solvent addition technique
# Format: physicochemical
# condition-context: 40 °C, organic solvent or mixture, thermodynamic from solid; Acetone; amorphous input; read-out: Solubility (mg/mL) at 40° C.
Structures can show the parent of a compound that is named as a salt.
quantity-measured: solubility

// recorded solubility for Nc1ncccc1-c1nc2ccc(-c3ccccc3)nc2n1-c1ccc(C2(N)CCC2)cc1 [Compound A bis-mesylate salt] : < 8 mg/mL

====

# test-details: Solvent solubility screen by solvent addition technique
# Type: physicochemical
# condition-context: 40 °C, organic solvent or mixture, thermodynamic from solid; Ethanol; amorphous input; read-out: Solubility (mg/mL) at 40° C.
Counter-ions that a name gives are not always drawn.
quantity-measured: solubility

Lab note: Nc1ncccc1-c1nc2ccc(-c3ccccc3)nc2n1-c1ccc(C2(N)CCC2)cc1 [Compound A bis-mesylate salt] gave solubility of < 8 mg/mL

====

# test-details: Solvent solubility screen by solvent addition technique
# Format: physicochemical
# condition-context: 40 °C, organic solvent or mixture, thermodynamic from solid; 2-Ethoxyethanol; amorphous input; read-out: Solubility (mg/mL) at 40° C.
Where a name gives a salt, the structure may show the parent alone.
quantity-measured: solubility

solubility reported for this compound Nc1ncccc1-c1nc2ccc(-c3ccccc3)nc2n1-c1ccc(C2(N)CCC2)cc1 [Compound A bis-mesylate salt] : < 8 mg/mL

====

# test-details: Aqueous solubility studies of bis-mesylate forms (slurry in deionised water, HPLC, XRPD)
# Format: physicochemical
# condition-context: deionised water, 22 °C, water, thermodynamic from solid, deionised water, about 24 hours, ambient temperature (about 22° C.); read-out: aqueous solubility (HPLC concentration analysis)
quantity-measured: solubility at 24 h

response.value for Nc1ncccc1-c1nc2ccc(-c3ccccc3)nc2n1-c1ccc(C2(N)CCC2)cc1 [Form A] (field: solubility at 24 h) = ~383 mg/mL

====

# test-details: Stability testing of bis-mesylate forms for 1 week (XRPD, HPLC purity)
# Type: physicochemical
# condition-context: ambient light (about 22° C.)
quantity-measured: polymorphic form after stability test (XRPD)

These solved cases illustrate the format of a correct answer.
Nc1ncccc1-c1nc2ccc(-c3ccccc3)nc2n1-c1ccc(C2(N)CCC2)cc1 [Form I]
remained unchanged
Nc1ncccc1-c1nc2ccc(-c3ccccc3)nc2n1-c1ccc(C2(N)CCC2)cc1 [Form C]
No change
Nc1ncccc1-c1nc2ccc(-c3ccccc3)nc2n1-c1ccc(C2(N)CCC2)cc1 [Form E]
remained unchanged
Nc1ncccc1-c1nc2ccc(-c3ccccc3)nc2n1-c1ccc(C2(N)CCC2)cc1 [Form A]
No change

Entry Nc1ncccc1-c1nc2ccc(-c3ccccc3)nc2n1-c1ccc(C2(N)CCC2)cc1 [Form D] ; polymorphic form after stability test (XRPD) = remained unchanged

// polymorphic form after stability test (XRPD) lookup, compound = Nc1ncccc1-c1nc2ccc(-c3ccccc3)nc2n1-c1ccc(C2(N)CCC2)cc1 [Form B] , result: remained unchanged

====

# test-details: Stability testing of bis-mesylate forms for 1 week (XRPD, HPLC purity)
# Assay type: physicochemical
# condition-context: 80° C.
quantity-measured: HPLC purity after stability test

Reference set, count: 4
Nc1ncccc1-c1nc2ccc(-c3ccccc3)nc2n1-c1ccc(C2(N)CCC2)cc1 [Form D]
about 99.9%
Nc1ncccc1-c1nc2ccc(-c3ccccc3)nc2n1-c1ccc(C2(N)CCC2)cc1 [Form C]
about 99.9%
Nc1ncccc1-c1nc2ccc(-c3ccccc3)nc2n1-c1ccc(C2(N)CCC2)cc1 [Form I]
about 99.9%
Nc1ncccc1-c1nc2ccc(-c3ccccc3)nc2n1-c1ccc(C2(N)CCC2)cc1 [Form E]
about 99.8%

Per the records, this compound ( Nc1ncccc1-c1nc2ccc(-c3ccccc3)nc2n1-c1ccc(C2(N)CCC2)cc1 [Form A] ) has HPLC purity after stability test equal to about 99.8%

# HPLC purity after stability test (compound: Nc1ncccc1-c1nc2ccc(-c3ccccc3)nc2n1-c1ccc(C2(N)CCC2)cc1 [Form B] ) is about 99.8%

====

# test-details: Dynamic Vapour Sorption (DVS)
# Assay type: physicochemical
quantity-measured: DVS (summary Table 21)

Nc1ncccc1-c1nc2ccc(-c3ccccc3)nc2n1-c1ccc(C2(N)CCC2)cc1 [Form I]
Hydration occurs
Nc1ncccc1-c1nc2ccc(-c3ccccc3)nc2n1-c1ccc(C2(N)CCC2)cc1 [Form D]
Hydration occurs
